Just for reference, ChEMBL document CHEMBL3507680 is where these values come from.

Some compounds, each annotated with its measured cytotoxicity at 70.5 h.
- assay.method.text: Human HepG2 cell viability assay in 384 well format
- Format: toxicity, cell-based
- Parameters: dose 125 nL, time 70.5 hour; concentration not given beside the values
- condition.set: HepG2 cells, read-out: Inhibition
Reply with just the number (in %).

>  <compound>
CS(=O)(=O)NC1CCN(CCc2ccccc2)CC1

>  <units.symbol>
%

>  <reading>
-9.51

$$$$
>  <compound>
CCS(=O)(=O)N1CCC(CSc2ccccc2)C1 (centres undefined)

>  <units.symbol>
%

>  <reading>
-11.1

$$$$
>  <compound>
CCCc1cc(C(=O)NC(COC)c2ccnn2C)no1 (centres undefined)

>  <units.symbol>
%

>  <reading>
14.9

$$$$
>  <compound>
CN(C)C(=O)C1OC2(CCN(C(=O)N(C)C)CC2)c2ccccc21 (centres undefined)

>  <units.symbol>
%

>  <reading>
-19.3

$$$$
>  <compound>
CC(C)N1CCc2c(CN(C)Cc3ccco3)cncc2C1

>  <units.symbol>
%

>  <reading>
5.22

$$$$

Dear colleague, I am looking for the recorded cytotoxicity at 70.5 h of the following compound: `Cc1ncc2c(n1)CN(Cc1nnc(-c3ccccc3)o1)CC2` -7.67

// query cytotoxicity at 70.5 h value for entry `O=C1COc2ccc(S(=O)(=O)NC3CC3)c3c2N1CCC3` 7.26

Param item = Cc1cccc(CNC(Cc2ccsc2)c2nccs2)n1 (centres undefined) ; retrieve measured cytotoxicity at 70.5 h. 0.0464

Which cytotoxicity at 70.5 h reading was recorded for the compound `O=C(c1ccco1)N1CC[C@@H](N2CCOCC2)[C@@H]1Cc1ccccc1` ? -7.17

Data request, read-out cytotoxicity at 70.5 h, for CCCn1cc(-c2ccnc(NC3CCc4ccccc43)n2)c(C)n1 (centres undefined) 4.9

Record request: cytotoxicity at 70.5 h value, item CC(C)NC(=O)C1CN(C(=O)N(C)C)CC12CCOCC2 (centres undefined) -3.34

What value of cytotoxicity at 70.5 h has been recorded for this entry: CSCC(C)(O)CNS(=O)(=O)c1cccc(Cl)c1 (centres undefined) -4.18

Returns the measured cytotoxicity at 70.5 h for the input compound. Input: `Cc1csc(-c2ccc(NC(=O)N3CCOCC3)cc2)n1` -0.264

Which measured cytotoxicity at 70.5 h value corresponds to `O=C(COc1ccc2c(c1)CCC2)NCc1ccco1` ? 23.9

* * *

- assay.method.text: Human HepG2 cell viability assay in 384 well format
- Assay type: toxicity, cell-based
- Design: dose 125 nL, time 70.5 hour; concentration not given beside the values
- condition.set: HepG2 cells, read-out: Inhibition
Items are presented alongside their recorded cytotoxicity at 70.5 h.
State the answer as a number, implicitly in %.

>  <compound>
Cn1ncc2c1CCCC2NCc1ccc(Br)s1 (stereo not drawn)

>  <cytotoxicity at 70.5 h (%)>
3.28

$$$$
>  <compound>
c1ccc(CN2CCc3ncnc(-c4ccsc4)c3CC2)nc1

>  <cytotoxicity at 70.5 h (%)>
-12.4

$$$$
>  <compound>
CCc1csc(CNC2CCN(Cc3ccccc3)C2)n1 (stereo not drawn)

>  <cytotoxicity at 70.5 h (%)>
-8.44

$$$$
>  <compound>
CCCc1nc(Cn2c(=O)n(C)c3ccccc32)no1

>  <cytotoxicity at 70.5 h (%)>
-6.48

$$$$
>  <compound>
Clc1cnccc1N1CCC(OC2CCOCC2)CC1

>  <cytotoxicity at 70.5 h (%)>
-1.59

$$$$

Would you mind telling me what cytotoxicity at 70.5 h value was observed for `CCN(CC)CC[C@H]1CN(C(=O)NC2CCCCC2)CC[C@H]1CC(=O)O` ? -1.74

What does the data say about its cytotoxicity at 70.5 h? Entry: `NC(=O)CN1CCC(C(=O)NCCc2nc(-c3ccccc3)cs2)CC1` -3.75
